- tested target: UniProt P30305
- Sequence (P30305 whole entry): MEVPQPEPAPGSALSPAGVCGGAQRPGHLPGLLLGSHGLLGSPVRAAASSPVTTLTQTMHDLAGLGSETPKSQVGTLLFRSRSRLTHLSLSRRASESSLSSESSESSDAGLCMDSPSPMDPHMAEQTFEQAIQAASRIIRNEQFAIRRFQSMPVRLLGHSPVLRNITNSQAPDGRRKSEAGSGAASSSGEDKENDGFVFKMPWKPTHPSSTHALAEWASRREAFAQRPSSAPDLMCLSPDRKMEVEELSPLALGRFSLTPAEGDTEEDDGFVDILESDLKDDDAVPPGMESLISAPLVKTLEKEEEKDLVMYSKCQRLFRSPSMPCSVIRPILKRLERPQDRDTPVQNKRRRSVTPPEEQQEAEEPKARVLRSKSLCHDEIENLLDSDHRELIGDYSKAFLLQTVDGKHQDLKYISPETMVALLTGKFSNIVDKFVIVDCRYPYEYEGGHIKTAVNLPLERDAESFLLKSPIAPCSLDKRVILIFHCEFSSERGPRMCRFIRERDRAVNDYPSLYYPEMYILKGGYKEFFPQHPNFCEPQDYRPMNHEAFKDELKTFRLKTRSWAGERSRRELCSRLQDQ
Consider the following IC50 data for UniProt P30305, collected from several reports.
measure: IC50 (µM)

Example entries and their recorded answers appear below.
| compound | IC50, µM |
| --- | --- |
| C=CC[C@@]1(O)CC/C(C)=C\CC[C@]2(C)[C@@H]([C@H](C)CCCC(C)C)CC[C@H]2c2ccc(cc2C(=O)O)C1 | 8.4 |
| O=C(O)[C@@H]1Cc2cc(I)c(OCCCCl)c(I)c2CN1C(=O)/C=C/c1ccccc1Cl | 27 |
| Cc1ccccc1C(=O)Nc1nnc(-c2ccc(Oc3ccc([N+](=O)[O-])cc3[N+](=O)[O-])cc2)s1 | 6.51 |
| CC(C)CCC[C@@H](C)[C@H]1CCC2[C@@H](O)CCC[C@@]21C (some centres not stated) | 5.8 |
| C/C1=C/CC[C@]2(C)[C@@H]([C@H](C)COC(=O)c3ccccc3)CC[C@H]2c2ccc(cc2C(=O)O)C[C@@H](O)CC1 | 6.5 |

[1] CC(C)CCC[C@@H](C)[C@H]1CC[C@H]2c3ccc(cc3C(=O)O)CC(O)CCC(C)CCC[C@]12C (some centres not stated)
[2] COc1ccc(-n2nnc(SCC(=O)c3ccc(O)c(O)c3)n2)cc1
Req: Identify the entry with the larger IC50. Options: 1 and 2 When you have decided, please share the label of that item.
Resp: 2
(2: 14.2 µM, 1: 4.9 µM)
